Origin of measurements: the supplement of paper PMC9170038

Test system: K4 kissing-loop RNA reporter
Assay: apparent KD of K4 kissing-loop reporter; higher = weaker reporter binding
Conditions: Eterna round: R107; input ligand: none
Decision: apparent KD of K4 kissing-loop reporter >= 600 nM yields MET, all other cases yield NOT MET.

Qu. Is it the case that AGACUACCACACUGUCAAUAGACAGUGAACUCGGAUAUGCUGAUAAGCAGAAGGAGUGAUGUUCCCAGGUAGUCAAUAAAAUAAU [FmnAX 13 C32+C66] has apparent KD of K4 kissing-loop reporter reaching or exceeding 600 nM?
Ans. NOT MET

Qu. Is apparent KD of K4 kissing-loop reporter at least 600 nM? Consider GGGUCAGUCUGAAGGAGCGGCCAGACAGAGCAGUGAUGUUGCUCCUCCGGAAACGGUGUCGGCCAGGUAGGUCGCAGAUUGGCUC [Dienralais mod v1]
Ans. NOT MET

Qu. Could you tell me if the measured apparent KD of K4 kissing-loop reporter of UGAUACCAGACGGCCGCCACUCCUGCAAGUCAAAGACUUGCUAAAAGGAUCGUCCAGUGAUGUUGGAGGACCGGGUCUGGUAUCU [TrypBX 19 #SwitchBubble #Palindromic #StaticStem] reaches 600 nM or more?
Ans. MET

Qu. Could you please find out whether UCGAGUUGACGAAAAGUCAACUCGUGAGAUACCAGUGACGAAAGUCACCCUUGGCAGCUCACUGCCAGUGAUGUUGGUGUAUAGA [#06 K4 Theophylline A Same State] has apparent KD of K4 kissing-loop reporter that meets 600 nM or exceeds it?
Ans. MET

Qu. Dear colleague, could you confirm whether `UGUGUUUACCUGACUCAGUGAUGUUGAGAAGGAGCGUGCUAAAGCACAGGUAGGUCGCUCAACCUAAAUUCAGGUGAGCACUAAA` has apparent KD of K4 kissing-loop reporter at or above 600 nM?
Ans. NOT MET

Qu. In plain terms: is recorded apparent KD of K4 kissing-loop reporter at least 600 nM for UGUCAUUGGUCUGAUACCAGUCCCUUGGCAGCCAAAUGGAGUGAUGUUCCAAGGAUACCAGACCCUUGGCAGCAGACCGAUGACU [TheoBS 26 #DoubleAptamer #SwitchBubble] ?
Ans. NOT MET

###

This section presents sequences with their documented apparent KD of K4 kissing-loop reporter values.
Tested on: K4 kissing-loop RNA reporter;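 further: bound reporter read as fluorescence of individual clusters on recovered sequencing chips by microscopy, with normalized cluster intensities fitted with a binding model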
Assay: apparent KD of K4 kissing-loop reporter; higher = weaker reporter binding
Conditions: Eterna round: R107; input ligand: arginine 13.2 mM
Could you give me the number in nM? Just the number is fine.

Known results for sequences:
Qu. Consider the sequence shown here: CGAGUCAAUUCAGAUACCAGCCAAUUAAAGUCGAGUGAUGUUCGACAAUGAACAUCCAAAGGCCCUUGGCAGCUGAAUUGGGAAC [Same State Theophylline B GF 18] What is its recorded apparent KD of K4 kissing-loop reporter?
Ans. 87.3

Qu. May I ask what apparent KD of K4 kissing-loop reporter has been recorded for GAAUAAUAACAUGAGUGAUGUUCAUGUAAACGAGGACCGGUACGGCCGCCACUCGAACCUCAUGUAAGCCGUACCAAUAACAAUA [KL-XTryp-A4 #analogue] ?
Ans. 120

Qu. I have this sequence here, UAAGAGGACCACUGCAAGAGUCCUCGAAUACGAGGACCGGUACGGCCGCCACUCGAUAACUUGUAGUGAUGUUGCAAGUAAGAAU [BrourdMod 1 - Jieux - Same State Tryptophan A] , and I need its recorded apparent KD of K4 kissing-loop reporter.
Ans. 79.2

Qu. # get_value(readout='apparent KD of K4 kissing-loop reporter', item= UUGAGCCGGACCGAAGUCCGGCUCUGCGAGCGAGGACCGGUACGGCCGCCACUCGGUGCAGUGAUGUUGCAUGGCCGCAAGGCCG [#2 Exclusion - Tryptophan A Attempt #8 (HarryS)] )
Ans. 286

Lab note: next sequence to report on.
Qu. // query apparent KD of K4 kissing-loop reporter value for entry UGUACCGAGUUAGGAUAUGUCGUCGAAAGACGAAAUGGAGUGAUGUUCCUUAAACUGCGAAAGCAGACAGAAGGGAUUUGGUACU [FmnBS 29 U11+U77]
Ans. 442
